# Test system: antibodies in sera from SARS patients (sera 1a, 1b, 2, 6, 37, 62, London, SARS-yellow, SARS-green)
# Format: binding, human
# Design: unit not given here
readout-name: Binding of serum 1a to looped/cyclic peptides of protein N of SARS-CoV Urbani

1. GQQQQGQTVTKKSAA :: 0.2
2. GGSQASSRSSSRSRG :: 0.3
3. LNQLESKVSGKGQQQ :: 0.4
4. GDQDLIRQGTDYKHW :: 0.4
5. NVTQAFGRRGPEQTQ :: 0.3
6. DHIGTRNPNNNAATV :: 0.5
7. SSRSRGNSRNSTPGS :: 0.3
8. NQRSAPRITFGGPTD :: 0.4
9. TQGNFGDQDLIRQGT :: 0.4
10. RQLQNSMSGASADST :: 0.2
11. FPPTEPKKDKKKKTD :: 0.2
12. RGQGVPINTNSGPDD :: 0.2
13. RNSTPGSSRGNSPAR :: 0.4
14. QGTDYKHWPQIAQFA :: 0.4
15. TRRVRGGDGKMKELS :: 0.2
16. SSSRSRGNSRNSTPG :: 0.2
17. ASSRSSSRSRGNSRN :: 0.3
18. RGGSQASSRSSSRSR :: 0.2
19. NQNGGRNGARPKQRR :: 0.2
20. TEGALNTPKDHIGTR :: 0.3
21. PQSNQRSAPRITFGG :: 0.5
22. SSRGNSPARMASGGG :: 0.4
23. YLGTGPEASLPYGAN :: 0.4
24. DNGPQSNQRSAPRIT :: 0.2
25. SASAFFGMSRIGMEV :: 0.5
26. LIRQGTDYKHWPQIA :: 0.4
27. ELSPRWYFYYLGTGP :: 0.3
28. LLDRLNQLESKVSGK :: 0.2

---

# System: recombinant human anti-SARS-CoV antibody 03-018
# Assay type: binding
# Design: unit not given here
Here the recorded Binding of antibody 03-018 to looped/cyclic peptides of the N protein of SARS-CoV Urbani is given for each entry.
readout-name: Binding of antibody 03-018 to looped/cyclic peptides of the N protein of SARS-CoV Urbani

1. SSRSSSRSRGNSRNS :: 0.2
2. TQGNFGDQDLIRQGT :: 0.2
3. PKQRRPQGLPNNTAS :: 0.3
4. QGTTLPKGFYAEGSR :: 0.2
5. FPPTEPKKDKKKKTD :: 0.2
6. LRFPRGQGVPINTNS :: 0.2
7. GETALALLLLDRLNQ :: 0.3
8. RATRRVRGGDGKMKE :: 0.2
9. LQNSMSGASADSTQA :: 0.2
10. KQYNVTQAFGRRGPE :: 0.1
11. NTASWFTALTQHGKE :: 0.2
12. ATKQYNVTQAFGRRG :: 0.3
13. SSSRSRGNSRNSTPG :: 0.2
14. DKKKKTDEAQPLPQR :: 0.2
15. GGSQASSRSSSRSRG :: 0.2
16. TVTKKSAAEASKKPR :: 0.2
17. PSASAFFGMSRIGME :: 0.2
18. KDKKKKTDEAQPLPQ :: 0.2
19. DYKHWPQIAQFAPSA :: 0.2
20. IKLDDKDPQFKDNVI :: 0.2
21. STPGSSRGNSPARMA :: 0.2

FYI, the data here is from patent US20070128217A1.
